Test: BSK_SAg_Proliferation: Cell Proliferation Assessment in the BioMAP Diversity Plus: SAg Assay (AID 2283095);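 further: relative cell number as total protein by SRB absorbance in sub-confluent culture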
Conditions: primary human HUVEC with PBMC
The source made the active and inactive calls. How the source made its calls: active means hit-call score of the fitted dose curve at least 0.9, where 1 is the maximum; inactive means score below 0.9.
Write down the outcome that applies. Available outcomes: yes = active, no = inactive

Use the examples below as a reference point.
[
  {
    "compound": "CCC(C)(C)C1CCC(O)CC1 (stereo unspecified)",
    "labelValue": "no"
  },
  {
    "compound": "CC[C@H](c1ccc(O)cc1)[C@@H](CC)c1ccc(O)cc1",
    "labelValue": "yes"
  },
  {
    "compound": "CCCCC(CC)COC(=O)CCCCC(=O)OCc1ccccc1 (stereo unspecified)",
    "labelValue": "no"
  }
]

## Input Called result for c1ccc2cc3c(ccc4ccccc43)cc2c1
## Output no

## Input Short answer needed: outcome of this test for CCCCCCCCOC(=O)CCCCCCCCC(=O)OCCCCCCCC ?
## Output no

## Input What call does the record list for NC(=O)N1C(=O)C(C(=O)c2cc(Cl)cs2)c2cc(F)c(Cl)cc21 (stereo unspecified) ?
## Output yes
